Hello, the source for this data is patent US6602854B1, in case you need it.

Test: Circular dichroism: degree of helicity (free, SUVs, micelles, TFE)
Conditions: percent helicity of free, unbound peptide
Protocol: Far UV circular dichroism spectra were recorded between 190 and 260 nm (in 0.5 nm or 0.2 nm increments) with a AVIV62DS spectrometer (AVIV Associates, Lakewood, N.J., USA) equipped with a thermoelectric cell holder and sample changer. […] All spectra were recorded at 37° C. The stability of peptide 4 (SEQ ID NO:4) as a function of temperature (both free in buffer and in micelles) was determined by recording spectra at a series of different temperatures. […]
Exercise: for every item that follows, state its recorded He (%) free.
Please give a number only; it is taken to be in %.

So what's the measured He (%) free for this one? 160 (PVLELFENLLERLLDWLQKKLK) [compound 160] 65

Consider next the substance 210 (PVLDLFRELLEELKQKLK) [compound 210] in the same way. 20

Consider next the substance 66 (PVLDLFRNLLEELLEALQKKLK) [compound 66] in the same way. 64

----------
assay: Circular dichroism: degree of helicity (free, SUVs, micelles, TFE); details: percent helicity of peptide-TFE solution
Where no end group is shown, it is not given here. [ ]: non-standard residue; d: D form. Aib = CC(C)(N)C(=O)O
Rule: measured He (%) TFE below 80% gets criterion met; anything equal to or greater than 80% gets criterion not met.

Lab note: He (%) TFE threshold 80%. Does this substance come in strictly under it? 49 (PVLDLFRNLLEKLLEALEQKLK) [compound 49] criterion met

Consider next the substance 192 (Ac-PVLDLFKELLEELKQKLK-NH2) [compound 192] in the same way. criterion met

Consider next the substance 220 (PVLDLFRELLEELQKKLK) [compound 220] in the same way. criterion met

Consider next the substance PVLDLFRELLNELLEWLKQKLK [peptide 3] in the same way. criterion not met

Consider next the substance 46 (PVLDLFREKLNE[Aib]LEALKQKLK) [compound 46] in the same way. criterion not met

Consider next the substance 67 (VLDLFRELLNELLEALKQKLK) [compound 67] in the same way. criterion not met

Consider next the substance PVLDLFRELLNEGLEALKQKLK [peptide 8] in the same way. criterion not met

Consider next the substance PVLDLFRELLNELLEAZKQKLK [peptide 10] in the same way. criterion met

Consider next the substance 76 (PVLDEFRELLFE[Aib]LEALKQKLK) [compound 76] in the same way. criterion met

Consider next the substance 217 (PVLDLFRELLELLKQKLK) [compound 217] in the same way. criterion met

Consider next the substance 164 (PVLELFENLLERLLDAWQKKLK) [compound 164] in the same way. criterion met

Consider next the substance 85 (PLDLFRELLNELLEALKQKLK) [compound 85] in the same way. criterion met

Consider next the substance 104 (PLLNELLEALKQKLK) [compound 104] in the same way. criterion met

Consider next the substance 209 (PVLDLFRELLNELLQKLK) [compound 209] in the same way. criterion met

Consider next the substance 36 (PLLELLKELLQELLEALKQKLK) [compound 36] in the same way. criterion not met

Consider next the substance PVLDFFRELLNEXLEALKQKLK (PVLDFFRELLNE[Aib]LEALKQKLK) [peptide 25] in the same way. criterion not met

Consider next the substance 197 (Ac-PLLDLFRELLEELKQKLK-NH2) [compound 197] in the same way. criterion met

Consider next the substance 70 (PVLDEFRELLYE[Aib]LEALKQKLK) [compound 70] in the same way. criterion met

Consider next the substance 40 (PVLDLFNELLRELLEALQKKLK) [compound 40] in the same way. criterion met

Consider next the substance 105 (PAADAFREAANEAAEAAKQKAK) [compound 105] in the same way. criterion met
